system: 380; assay: selective drug sensitivity score (sDSS, relative to normal bone marrow) (sDSS (score)); higher = more potent and effective on the cell line relative to normal bone marrow cells; conditions: 72 h;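 also: ALL cell lines in 384-well plates, five doses spanning 10,000-fold, each plate scaled between vehicle and 100 µmol/L benzalkonium chloride controls, sDSS an adapted area-under-curve metric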
measured quantity: selective drug sensitivity score
Just the number, please, no unit after it.

The following molecules have reported results that may help.
[
  {
    "molecule": "CNC(=O)c1cc(COc2nnc(Nc3ccc(Cl)cc3)c3ccoc23)ccn1 [Telatinib] (top concentration 10000 nM)",
    "selective drug sensitivity score": 0
  },
  {
    "molecule": "CC(C)N(C[C@H]1O[C@@H](n2cnc3c(N)ncnc32)[C@H](O)[C@@H]1O)[C@H]1C[C@@H](CCc2nc3cc(C(C)(C)C)ccc3[nH]2)C1 [Pinometostat] (top concentration 1000 nM)",
    "selective drug sensitivity score": 0
  },
  {
    "molecule": "CCOc1ccccc1-n1c(C(C)N2CCN(C(=O)COc3ccc(Cl)cc3)CC2)nc2ccccc2c1=O (stereo not given) [Erastin] (top concentration 10000 nM)",
    "selective drug sensitivity score": 24.8
  },
  {
    "molecule": "CC[C@H](NC(=O)[C@H](C)NC)C(=O)N1C[C@@H](O)C[C@H]1Cc1c(-c2[nH]c3cc(F)ccc3c2C[C@@H]2C[C@H](O)CN2C(=O)[C@H](CC)NC(=O)[C@H](C)NC)[nH]c2cc(F)ccc12 [Birinapant] (top concentration 1000 nM)",
    "selective drug sensitivity score": -5.1
  }
]

selective drug sensitivity score in this record for N#Cc1ccc2[nH]c(O)c(-c3ccc(CN4CCOCC4)cn3)c2c1 [AZD-1080] (top concentration 10000 nM) : -0.02

----------
test system: MHH-CALL-2; assay: selective drug sensitivity score (sDSS, relative to normal bone marrow) (sDSS (score)); higher = more potent and effective on the cell line relative to normal bone marrow cells; conditions: 72 h
measured quantity: selective drug sensitivity score
Provide a numeric answer; units are not to be included.

Examples with answers:
[
  {
    "compound": "CCCS(=O)(=O)Nc1ccc(F)c(C(=O)c2c[nH]c3ncc(-c4ccc(Cl)cc4)cc23)c1F [Vemurafenib] (top concentration 10000 nM)",
    "selective drug sensitivity score": 3.56
  },
  {
    "compound": "O=C(/C=C\\n1cnc(-c2cc(C(F)(F)F)cc(C(F)(F)F)c2)n1)NNc1ccccn1 [Verdinexor] (top concentration 1000 nM)",
    "selective drug sensitivity score": 1.84
  },
  {
    "compound": "CNC(=O)c1ccc(N2C(=S)N(c3ccc(C#N)c(C(F)(F)F)c3)C(=O)C2(C)C)cc1F [Enzalutamide] (top concentration 10000 nM)",
    "selective drug sensitivity score": -0.12
  },
  {
    "compound": "Cc1sc2c(c1C)C(c1ccc(Cl)cc1)=N[C@@H](CC(=O)OC(C)(C)C)c1nnc(C)n1-2 [JQ1] (top concentration 10000 nM)",
    "selective drug sensitivity score": 9.62
  },
  {
    "compound": "CNC(=O)c1ccccc1Nc1nc(Nc2ccc3c(c2OC)CCC[C@H](N2CCN(CCO)CC2)C3)ncc1Cl (top concentration 5000 nM)",
    "selective drug sensitivity score": 1.66
  }
]

Item: CN(C)CCCOc1ccc(-c2ccc3ncc4c(c3c2)n(C2CCOCC2)c(=O)n4C)cn1 [AZD0156] (top concentration 1000 nM) | System: MHH-CALL-2 | selective drug sensitivity score: 1.84

The reported selective drug sensitivity score value, MHH-CALL-2, for CC(C)N(C[C@H]1O[C@@H](n2cnc3c(N)ncnc32)[C@H](O)[C@@H]1O)[C@H]1C[C@@H](CCc2nc3cc(C(C)(C)C)ccc3[nH]2)C1 [Pinometostat] (top concentration 1000 nM) reads 0

The recorded selective drug sensitivity score with MHH-CALL-2 for S=C(NCc1ccc2c(c1)OCO2)N1CCN(c2ncnc3c2oc2ccccc23)CC1 [Amuvatinib] (top concentration 10000 nM) was 3.66

Sample O=C(O)c1ccc(-c2c[nH]c3ncc(-c4ccccc4)cc23)cc1C1CCCC1 (top concentration 10000 nM) , system: MHH-CALL-2. Its selective drug sensitivity score is 11.7

Hey, MHH-CALL-2 data for C=CCn1c(=O)c2cnc(Nc3ccc(N4CCN(C)CC4)cc3)nc2n1-c1cccc(C(C)(C)O)n1 [AZD1775] (top concentration 10000 nM) : selective drug sensitivity score came out at 10.5

Readout selective drug sensitivity score for CC[C@H](C)C(=O)O[C@H]1C[C@@H](C)C=C2C=C[C@H](C)[C@H](CC[C@@H]3C[C@@H](O)CC(=O)O3)[C@H]21 [Lovastatin] (top concentration 10000 nM) , test system MHH-CALL-2, was 8.7

Value (selective drug sensitivity score, MHH-CALL-2) for record CC1=C(/C=C/C(C)=C/C=C/C(C)=C/C(=O)O)C(C)(C)CCC1 [Tretinoin] (top concentration 10000 nM) = -1.7
